system: HeLa; test: Cytotoxicity against human HeLa cells after 72 hrs by MTT assay; type: functional, cell-based; details: Homo sapiens, HeLa, 72 h
metric.name: pIC50
Scale note: pIC50 = -log10(concentration in M).

Completed entries (count: 2):
test_smiles=O=C(Nc1nc2ccc(C3=NCCN3)cc2s1)c1cc2ccccc2o1 target_desc=HeLa assay_value=4.22
test_smiles=O=C(Nc1nc2ccc([N+](=O)[O-])cc2s1)c1cc2ccccc2o1 target_desc=HeLa assay_value=4.76

What value of pIC50 has been reported for the following molecule? Cl.O=C(Nc1ccc(C2=NCCN2)cc1)c1cc2ccccc2o1
4.56

Need pIC50 of O=C(Nc1nc2ccc([N+](=O)[O-])cc2[nH]1)c1cc2ccccc2o1 , thanks.
5.04
